# System: TRAMP-C2RE3 prostate cancer cells
# method: Growth inhibition by MTT staining, TRAMP-C2RE3
# Type: cell-based
# conditionLabel: 96 h, Mouse, Prostate tumor cells, treated four days
pIC50: −log10 of the molar value.

{"columns": ["inputSmiles", "pIC50"],
 "data": [
  ["Cc1ccsc1C(=O)N/N=C/c1ccc2ccccc2c1O", 6.70]
]}

* * *

# System: PC-3 cells
# method: Alamar blue assay, PC-3 cells as positive control
# Type: cell-based, Human
# conditionLabel: Homo sapiens, PC-3; FIG. 2(B); Alamar blue assay
readout: IC50

{"columns": ["inputSmiles", "readout", "result"],
 "data": [
  ["Cc1ccsc1C(=O)N/N=C/c1ccc2ccccc2c1O", "IC50", "482 nM"]
]}

* * *

# Test system: LNCaP cells
# method: MTT assay, PCNA-I1 and cisplatin alone or combined, LNCaP
# Type: cell-based, Human
# conditionLabel: Homo sapiens, LNCaP; combined with 0.3 μM cisplatin; read-out: PCNA-I1 concentration giving 50% inhibition in combination, LNCaP
pIC50: −log10 of the molar value.
readout: pIC50

{"columns": ["molecule", "readout", "number"],
 "data": [
  ["Cc1ccsc1C(=O)N/N=C/c1ccc2ccccc2c1O [PCNA-I1]", "pIC50", 7.17]
]}
